Data provenance is patent US9566312B2.

Target: cyclophilin B (CypB) (Homo sapiens (Human))
Sequence (P23284 34-216): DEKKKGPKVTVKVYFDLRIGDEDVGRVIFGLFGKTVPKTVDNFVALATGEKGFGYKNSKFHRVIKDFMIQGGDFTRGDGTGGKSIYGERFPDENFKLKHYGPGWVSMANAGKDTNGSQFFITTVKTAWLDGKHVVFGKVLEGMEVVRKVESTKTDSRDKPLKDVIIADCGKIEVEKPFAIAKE
Assay: Inhibitor binding to cyclophilin proteins by SPR, CypB
Design: unit not given here
Details: 1:1 binding model
Procedure: Method 1: Measuring Inhibitor Binding to Cyclophilin Proteins Binding of inhibitors to expressed cyclophilins was determined using surface plasmon resonance (SPR) experiments. Briefly, avi-tagged cyclophilin proteins with mono-biotinylation were immobilized onto a Biotin CAPture chip (GE Healthcare, cat. #28920234). […] Data was analyzed using Biacore T200 Evaluation Software Version 1.0 and a 1:1 binding model was applied to fit the data to obtain kon, koff, and KD.
Starred links: 1 amine or outer side, 2 acyl side, 3 side chain; linkers in the order of their positions; H or OH if unused. Non-standard residues stand in square brackets, D forms with d. Residues, ends and D or L forms follow the SMILES beside them. X45 = C[C@H](CCC(=O)N1CC2CCC(C1)O2)[C@@H](C(=O)[*:2])N(C)[*:1]; X82 = C[C@H](COCCN1CCOC[C@@H]1C)[C@@H](C(=O)[*:2])N(C)[*:1]; MeBmt = C/C=C/C[C@@H](C)[C@@H](O)[C@H](NC)C(=O)O; NMeL = CN[C@@H](CC(C)C)C(=O)O; NMeV = CN[C@H](C(=O)O)C(C)C; dNMeA = CN[C@H](C)C(=O)O; Abu = CC[C@H](N)C(=O)O
property measured: CypB Kd
Lab note: record just the number, no unit beside it.

Query: Supply CypB Kd value. Item: C/C=C/C[C@@H](C)[C@@H](O)[C@H]1C(=O)N[C@@H](CC)C(=O)N(C)[C@H](C)C(=O)N(C)[C@@H]([C@H](C)CCC(=O)N2CC3CCC(C2)O3)C(=O)N[C@@H](C(C)C)C(=O)N(C)[C@@H](CC(C)C)C(=O)N[C@@H](C)C(=O)N[C@H](C)C(=O)N(C)[C@@H](CC(C)C)C(=O)N(C)[C@@H](CC(C)C)C(=O)N(C)[C@@H](C(C)C)C(=O)N1C [Compound 2.14.2] (cyclo(A[dA][NMeL][NMeL][NMeV][MeBmt][Abu][dNMeA][X45]V[NMeL]))
Result: 0.9

Let's switch to this compound now.
Query: Indicate its recorded CypB Kd; the compound in question is C/C=C/C[C@@H](C)[C@@H](O)[C@H]1C(=O)N[C@@H](CC)C(=O)N(C)[C@H](C)C(=O)N(C)[C@@H]([C@H](C)COCCN2CCOC[C@@H]2C)C(=O)N[C@@H](C(C)C)C(=O)N(C)[C@@H](CC(C)C)C(=O)N[C@@H](C)C(=O)N[C@H](C)C(=O)N(C)[C@@H](CC(C)C)C(=O)N(C)[C@@H](CC(C)C)C(=O)N(C)[C@@H](C(C)C)C(=O)N1C [Compound 2.8.6] (cyclo(A[dA][NMeL][NMeL][NMeV][MeBmt][Abu][dNMeA][X82]V[NMeL]))
Result: 0.9

###

target: cyclophilin A (CypA) (Homo sapiens (Human), UniProt P62937); assay: Inhibitor binding to cyclophilin proteins by SPR, CypA; set-up: unit not given here; conditions: 1:1 binding model;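 note: Single-cycle kinetics on a Biacore T200, compound injected at several concentrations for 1 min each at 50 µL/min, then 10 min dissociation, in HEPES pH 7.4 buffer with 3% DMSO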
Sequence (P62937 whole entry): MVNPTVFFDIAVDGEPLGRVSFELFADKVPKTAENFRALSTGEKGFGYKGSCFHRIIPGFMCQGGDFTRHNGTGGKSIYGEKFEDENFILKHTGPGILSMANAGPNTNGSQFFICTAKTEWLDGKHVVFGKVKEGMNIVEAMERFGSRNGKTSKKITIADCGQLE
Starred links: 1 amine or outer side, 2 acyl side, 3 side chain; linkers in the order of their positions; H or OH if unused. Non-standard residues stand in square brackets, D forms with d. Residues, ends and D or L forms follow the SMILES beside them. X28 = CCN1CCN(C(=O)OC[C@H](C)[C@@H](C(=O)[*:2])N(C)[*:1])CC1; X22 = C[C@H](CN1CCN(C2CCC2)CC1)[C@@H](C(=O)[*:2])N(C)[*:1]; MeBmt = C/C=C/C[C@@H](C)[C@@H](O)[C@H](NC)C(=O)O; NMeL = CN[C@@H](CC(C)C)C(=O)O; NMeV = CN[C@H](C(=O)O)C(C)C; dNMeA = CN[C@H](C)C(=O)O; Abu = CC[C@H](N)C(=O)O
Measured CypA Kd of individual entries
Respond using a number only.

Query: Supply CypA Kd measured with cyclophilin A (CypA) (Homo sapiens (Human), UniProt P62937) for C/C=C/C[C@@H](C)[C@@H](O)[C@H]1C(=O)N[C@@H](CC)C(=O)N(C)[C@H](C)C(=O)N(C)[C@@H]([C@@H](C)COC(=O)N2CCN(CC)CC2)C(=O)N[C@@H](C(C)C)C(=O)N(C)[C@@H](CC(C)C)C(=O)N[C@@H](C)C(=O)N[C@H](C)C(=O)N(C)[C@@H](CC(C)C)C(=O)N(C)[C@@H](CC(C)C)C(=O)N(C)[C@@H](C(C)C)C(=O)N1C [Compound 2.17.14] (cyclo(A[dA][NMeL][NMeL][NMeV][MeBmt][Abu][dNMeA][X28]V[NMeL])) .
Result: 0.5

Read the next record carefully.
Query: Consider the compound C/C=C/C[C@@H](C)[C@@H](O)[C@H]1C(=O)N[C@@H](CC)C(=O)N(C)[C@H](C)C(=O)N(C)[C@@H]([C@H](C)CN2CCN(C3CCC3)CC2)C(=O)N[C@@H](C(C)C)C(=O)N(C)[C@@H](CC(C)C)C(=O)N[C@@H](C)C(=O)N[C@H](C)C(=O)N(C)[C@@H](CC(C)C)C(=O)N(C)[C@@H](CC(C)C)C(=O)N(C)[C@@H](C(C)C)C(=O)N1C [Compound 2.5.14] (cyclo(A[dA][NMeL][NMeL][NMeV][MeBmt][Abu][dNMeA][X22]V[NMeL])) tested on cyclophilin A (CypA) (Homo sapiens (Human), UniProt P62937); state its CypA Kd.
Result: 1.0

###

target: organic anion transporting polypeptide 1B1 (OATP1B1) (Homo sapiens (Human)); assay: OATP assay in CHO-OATP1B1 cells;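 note: inhibition of probe substrate uptake into the cells, ten minutes exposure, accumulated substrate read by fluorescence once cells were lysed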
Sequence (Q9Y6L6 whole entry): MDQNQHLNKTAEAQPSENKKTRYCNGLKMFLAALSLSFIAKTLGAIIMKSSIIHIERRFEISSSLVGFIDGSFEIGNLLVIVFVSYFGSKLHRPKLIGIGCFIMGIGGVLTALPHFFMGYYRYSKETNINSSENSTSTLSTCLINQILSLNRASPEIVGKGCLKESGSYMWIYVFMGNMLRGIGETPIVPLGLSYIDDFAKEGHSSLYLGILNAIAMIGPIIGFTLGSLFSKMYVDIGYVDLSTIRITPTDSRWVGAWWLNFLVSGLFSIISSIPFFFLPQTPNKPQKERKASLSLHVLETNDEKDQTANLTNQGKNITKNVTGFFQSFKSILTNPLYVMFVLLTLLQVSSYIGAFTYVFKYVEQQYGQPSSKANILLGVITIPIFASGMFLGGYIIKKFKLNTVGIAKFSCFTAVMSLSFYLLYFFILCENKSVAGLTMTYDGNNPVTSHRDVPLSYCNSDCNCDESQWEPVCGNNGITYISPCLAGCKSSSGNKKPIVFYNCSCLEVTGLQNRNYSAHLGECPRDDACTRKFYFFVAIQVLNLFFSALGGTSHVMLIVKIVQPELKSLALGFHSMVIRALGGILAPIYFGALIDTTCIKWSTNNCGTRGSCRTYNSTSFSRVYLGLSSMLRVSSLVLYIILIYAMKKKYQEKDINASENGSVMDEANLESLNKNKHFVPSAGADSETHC
Starred links: 1 amine or outer side, 2 acyl side, 3 side chain; linkers in the order of their positions; H or OH if unused. Non-standard residues stand in square brackets, D forms with d. Residues, ends and D or L forms follow the SMILES beside them. X75 = C[C@H](CCC(C)(C)OC(=O)N1CCN(C)CC1)[C@@H](C(=O)[*:2])N(C)[*:1]; X58 = C[C@H](COCCN1CCN(C2CCC2)CC1)[C@@H](C(=O)[*:2])N(C)[*:1]; X78 = CC(C)N1CCN(CCOC[C@@H](C)[C@@H](C(=O)[*:2])N(C)[*:1])CC1; X66 = C[C@H](COCC(=O)N1CCN(C)CC1)[C@@H](C(=O)[*:2])N(C)[*:1]; X12 = C[C@@H](CN1CCN(C2CCC2)CC1)[C@@H](C(=O)[*:2])N(C)[*:1]; X5 = C[C@H](COC(=O)N1CCN(C)CC1)[C@@H](C(=O)[*:2])N(C)[*:1]; MeBmt = C/C=C/C[C@@H](C)[C@@H](O)[C@H](NC)C(=O)O; NMeL = CN[C@@H](CC(C)C)C(=O)O; NMeV = CN[C@H](C(=O)O)C(C)C; dNMeA = CN[C@H](C)C(=O)O; Abu = CC[C@H](N)C(=O)O
property measured: pIC50
pIC50 (log units): -log10 of the concentration in mol/L.

Query: Read the entry C/C=C/C[C@@H](C)[C@@H](O)[C@H]1C(=O)N[C@@H](CC)C(=O)N(C)[C@H](C)C(=O)N(C)[C@@H]([C@H](C)COCCN2CCN(C3CCC3)CC2)C(=O)N[C@@H](C(C)C)C(=O)N(C)[C@@H](CC(C)C)C(=O)N[C@@H](C)C(=O)N[C@H](C)C(=O)N(C)[C@@H](CC(C)C)C(=O)N(C)[C@@H](CC(C)C)C(=O)N(C)[C@@H](C(C)C)C(=O)N1C [Compound 2.8.8] (cyclo(A[dA][NMeL][NMeL][NMeV][MeBmt][Abu][dNMeA][X58]V[NMeL])) and write its reported pIC50.
Result: 5.46

Query: Read off the recorded pIC50 for C/C=C/C[C@@H](C)[C@@H](O)[C@H]1C(=O)N[C@@H](CC)C(=O)N(C)[C@H](C)C(=O)N(C)[C@@H]([C@H](C)COC(=O)N2CCN(C)CC2)C(=O)N[C@@H](C(C)C)C(=O)N(C)[C@@H](CC(C)C)C(=O)N[C@@H](C)C(=O)N[C@H](C)C(=O)N(C)[C@@H](CC(C)C)C(=O)N(C)[C@@H](CC(C)C)C(=O)N(C)[C@@H](C(C)C)C(=O)N1C [Compound 2.5.9] (cyclo(A[dA][NMeL][NMeL][NMeV][MeBmt][Abu][dNMeA][X5]V[NMeL]))
Result: 5.17

Query: Report pIC50, nothing else, for this molecule: C/C=C/C[C@@H](C)[C@@H](O)[C@H]1C(=O)N[C@@H](CC)C(=O)N(C)[C@H](C)C(=O)N(C)[C@@H]([C@H](C)COCC(=O)N2CCN(C)CC2)C(=O)N[C@@H](C(C)C)C(=O)N(C)[C@@H](CC(C)C)C(=O)N[C@@H](C)C(=O)N[C@H](C)C(=O)N(C)[C@@H](CC(C)C)C(=O)N(C)[C@@H](CC(C)C)C(=O)N(C)[C@@H](C(C)C)C(=O)N1C [Compound 2.6.3] (cyclo(A[dA][NMeL][NMeL][NMeV][MeBmt][Abu][dNMeA][X66]V[NMeL]))
Result: 5.03

Query: Assign pIC50 to the following record: C/C=C/C[C@@H](C)[C@@H](O)[C@H]1C(=O)N[C@@H](CC)C(=O)N(C)[C@H](C)C(=O)N(C)[C@@H]([C@H](C)CCC(C)(C)OC(=O)N2CCN(C)CC2)C(=O)N[C@@H](C(C)C)C(=O)N(C)[C@@H](CC(C)C)C(=O)N[C@@H](C)C(=O)N[C@H](C)C(=O)N(C)[C@@H](CC(C)C)C(=O)N(C)[C@@H](CC(C)C)C(=O)N(C)[C@@H](C(C)C)C(=O)N1C [Compound 2.12.2] (cyclo(A[dA][NMeL][NMeL][NMeV][MeBmt][Abu][dNMeA][X75]V[NMeL]))
Result: 5.33

Query: Assign pIC50 to the following record: C/C=C/C[C@@H](C)[C@@H](O)[C@H]1C(=O)N[C@@H](CC)C(=O)N(C)[C@H](C)C(=O)N(C)[C@@H]([C@@H](C)CN2CCN(C3CCC3)CC2)C(=O)N[C@@H](C(C)C)C(=O)N(C)[C@@H](CC(C)C)C(=O)N[C@@H](C)C(=O)N[C@H](C)C(=O)N(C)[C@@H](CC(C)C)C(=O)N(C)[C@@H](CC(C)C)C(=O)N(C)[C@@H](C(C)C)C(=O)N1C [Compound 2.17.3] (cyclo(A[dA][NMeL][NMeL][NMeV][MeBmt][Abu][dNMeA][X12]V[NMeL]))
Result: 5.40

---
Query: Consider the molecule C/C=C/C[C@@H](C)[C@@H](O)[C@H]1C(=O)N[C@@H](CC)C(=O)N(C)[C@H](C)C(=O)N(C)[C@@H]([C@H](C)COCCN2CCN(C(C)C)CC2)C(=O)N[C@@H](C(C)C)C(=O)N(C)[C@@H](CC(C)C)C(=O)N[C@@H](C)C(=O)N[C@H](C)C(=O)N(C)[C@@H](CC(C)C)C(=O)N(C)[C@@H](CC(C)C)C(=O)N(C)[C@@H](C(C)C)C(=O)N1C [Compound 2.8.5] (cyclo(A[dA][NMeL][NMeL][NMeV][MeBmt][Abu][dNMeA][X78]V[NMeL])) . State its measured pIC50.
Result: 5.36
